# testedTarget: GORASP1, Q9BQQ3
# Sequence (Q9BQQ3 1-208): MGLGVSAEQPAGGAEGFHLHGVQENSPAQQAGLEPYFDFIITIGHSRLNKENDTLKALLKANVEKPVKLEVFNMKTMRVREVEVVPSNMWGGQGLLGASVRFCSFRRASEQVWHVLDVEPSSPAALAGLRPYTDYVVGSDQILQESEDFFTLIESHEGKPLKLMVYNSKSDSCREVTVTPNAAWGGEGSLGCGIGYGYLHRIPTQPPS
# experimentalDetails: holdup assay
# Parameters: key: below the threshold = too weak to quantify, mostly under pKd 3.1 to 4
# conditionParameters: plain residues with an end cap or a label only (N-terminal biotin on a linker: ado-ado)
Would you mind telling me the reported pKd of each entry?
Answers are plain numbers.

Provide each entry's pKd from the list below.
1. PRAEAEDSFL [PDGFRB, P09619]
2. KSGKQTMLVV [TRIM29, Q14134;Q14134-2]
3. QSPANIYYKV [EFNB1, P52799]
4. VDSTVKVWTC [TRAF7, Q6Q0C0]
5. EVEEFPETSV [TRPV3, Q8NET8]
6. YNNCLEILRV [DCAF7, P61962]

[3.57, 4.34, 4.85, 4.15, 3.54, 4.74]
